Where do the numbers come from? From patent US4956362A.

Target: central serotonin receptor sites (type S2) (Rattus norvegicus)
Sequence (P14842 whole entry): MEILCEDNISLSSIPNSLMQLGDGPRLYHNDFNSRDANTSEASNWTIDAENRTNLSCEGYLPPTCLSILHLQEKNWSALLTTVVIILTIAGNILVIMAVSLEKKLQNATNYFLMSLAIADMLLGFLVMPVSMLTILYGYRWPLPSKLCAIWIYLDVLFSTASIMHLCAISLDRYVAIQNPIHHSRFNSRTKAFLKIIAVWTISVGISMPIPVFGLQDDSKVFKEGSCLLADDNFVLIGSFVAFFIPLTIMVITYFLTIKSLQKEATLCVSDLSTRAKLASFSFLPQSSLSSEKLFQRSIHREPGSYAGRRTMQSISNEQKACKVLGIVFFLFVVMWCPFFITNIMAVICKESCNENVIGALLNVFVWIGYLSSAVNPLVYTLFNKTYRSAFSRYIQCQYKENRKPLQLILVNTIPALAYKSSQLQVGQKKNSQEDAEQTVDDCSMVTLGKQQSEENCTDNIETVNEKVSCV
pIC50: −log10 of the molar value.
measuredMetric: pIC50

[[record]]
molecule = "NC(=O)C1(N2CCCCC2)CCN(CCCN2c3ccccc3CCc3ccccc32)CC1 [carpipramine]"
numericresult = 8.52


----------
Assay: Acute oral toxicity in mice
Settings: mouse, in vivo, po; administered orally in mice
measuredMetric: LD50 (mg/kg)

[[record]]
compound = "NC(=O)C1(N2CCCCC2)CCN(CCCN2c3ccccc3CCc3ccccc32)CC1 [carpipramine]"
scaleunit = "mg/kg"
numericresult = 250

